Biological target: FPR2 (Homo sapiens (Human))
Sequence (P25090 whole entry): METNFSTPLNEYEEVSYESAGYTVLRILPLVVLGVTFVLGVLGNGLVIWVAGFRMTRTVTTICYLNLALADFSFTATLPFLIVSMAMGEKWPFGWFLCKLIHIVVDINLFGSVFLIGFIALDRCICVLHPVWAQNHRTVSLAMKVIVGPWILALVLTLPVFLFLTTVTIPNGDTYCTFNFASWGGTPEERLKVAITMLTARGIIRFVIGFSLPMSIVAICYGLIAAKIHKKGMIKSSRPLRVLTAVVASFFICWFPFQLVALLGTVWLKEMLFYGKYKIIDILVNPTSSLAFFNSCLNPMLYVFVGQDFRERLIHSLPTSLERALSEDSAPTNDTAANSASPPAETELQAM
Experiment: FLIPR Ca+2 response, HEK-Gα16 cells stably expressing the human FPR2 receptor (Table 4)
Assay type: cell-based
Conditions: efficacy in parentheses
PROPERTY LABEL: FPR2 (efficacy)

Known FPR2 (efficacy) results, listed for orientation:
CC(C)C[C@H](NC(=O)Nc1ccc(Br)cc1)C(=O)NCS(=O)(=O)O :: nM (0.91)
CC(C)C[C@H](NC(=O)Nc1ccc(Br)cc1)C(=O)N[C@H](C(=O)O)C(C)C :: nM (0.97)
CC1(C)C2CCC1C(C(=O)Nc1ccc(I)cc1)C2C(=O)O (stereo not drawn) :: nM (0.97)
CSCC[C@H](NC(=O)Nc1ccc(Br)cc1)C(=O)NCC(=O)O :: nM (0.91)
CC1(CCc2ccc(O)c(F)c2)NC(=O)N(NC(=O)Nc2ccc(Br)cc2)C1=O (stereo not drawn) :: nM (1.0)
CC1(CCc2cccc(O)c2)NC(=O)N(NC(=O)Nc2ccc(Br)cc2)C1=O (stereo not drawn) :: nM (1.0)
N#Cc1ccc(C2Cc3ccc(NC(=O)Nc4ccc(I)cc4)cc3C(=O)N2CCCN)cc1 (stereo not drawn) :: nM (0.94)
CC(C)C[C@H](NC(=O)Nc1ccc(Br)cc1)C(=O)NCC(N)=O :: nM (1.0)
CC1(CCc2ccc(O)c(F)c2)NC(=O)N(NC(=O)Nc2ccc(Br)cc2F)C1=O (stereo not drawn) :: nM (0.91)
CC(C)C1(CC(=O)NCCO)NC(=O)N(NC(=O)Nc2ccc(Br)cc2F)C1=O (stereo not drawn) :: nM (0.98)

Tested system FPR2 (Homo sapiens (Human)); FPR2 (efficacy) recorded for CCC1(C(C)C)NC(=O)N(NC(=O)Nc2ccc(Br)cc2)C1=O (single isomer, unassigned; (-)) [Compound 67] was nM (1.0)

Tested system FPR2 (Homo sapiens (Human)); FPR2 (efficacy) recorded for CCOP(=O)(CNC(=O)[C@@H](NC(=O)Nc1ccc(Br)cc1)[C@@H](C)CC)OCC was nM (1.0)

Tested system FPR2 (Homo sapiens (Human)); FPR2 (efficacy) recorded for CCC1(CCc2ccccc2)NC(=O)N(NC(=O)Nc2ccc(Br)cc2F)C1=O (stereo not drawn) was nM (0.91)

Tested system FPR2 (Homo sapiens (Human)); FPR2 (efficacy) recorded for CNC(=O)C1C(C(=O)Nc2ccc(Br)cc2)C2CCC1C21CC1 (stereo not drawn) was nM (1.0)

Tested system FPR2 (Homo sapiens (Human)); FPR2 (efficacy) recorded for CCOC(=O)CCC1(C(C)C)NC(=O)N(NC(=O)Nc2ccc(Br)cc2)C1=O (stereo not drawn) was nM (0.94)

Provenance of the data: patent US10208071B2
